The measurements presented in this section are drawn from patent US9149038B2.

system: Direct Seeded Rice and weed species; assay: Postemergence herbicidal activity in direct seeded rice, visual rating after 20-22 days and probit GR20/GR50/GR80/GR90 (Table 14); format: in vivo; conditions: post-emergence, 504 h; DIGSA (large crabgrass, Digitaria sanguinalis); 70 g ai/ha; postemergence; read-out: Visual Growth Reduction (%) 21 Days After Application DIGSA
quantity.name: pest or weed control at 70 g/ha

structure.as.smiles: COc1c(C(=O)O)nc(-c2ccc3c(c2)OC(F)(F)O3)c(F)c1N
quantity.name: pest or weed control at 70 g/ha
result.value: 60 to 74%

structure.as.smiles: COC(=O)c1nc(-c2ccc3c(c2F)OC(F)(F)O3)cc(N)c1Cl
quantity.name: pest or weed control at 70 g/ha
result.value: 95 to 100%

# evaluate next
// lookup pest or weed control at 70 g/ha for COc1c(N)nc(-c2ccc3c(c2F)OC(F)(F)O3)nc1C(=O)O
85 to 94%
